Test: ALD50 in mice (acute toxicity, i.p.)
Conditions: mouse, in vivo, ip
Description: 5-hydroxy-2-methyl-7,8-cyclopentano[h]-1,2,3,4-tetrahydroisoquinoline has an ALD50 in mice of 100-150 mg/kg i.p. When administered as the base at 50 mg/kg i.p. to hypertensive rats the following percent change in systolic blood pressure was observed: […]
Result Type: LD50

Query :: Which LD50 is listed for CN1CCc2c(O)cc3c(c2C1)CCC3 ?
Result :: 100 to 150 mg/kg
